Target: YAP1:OCT4 (Homo sapiens)
Sequence (P46937 whole entry): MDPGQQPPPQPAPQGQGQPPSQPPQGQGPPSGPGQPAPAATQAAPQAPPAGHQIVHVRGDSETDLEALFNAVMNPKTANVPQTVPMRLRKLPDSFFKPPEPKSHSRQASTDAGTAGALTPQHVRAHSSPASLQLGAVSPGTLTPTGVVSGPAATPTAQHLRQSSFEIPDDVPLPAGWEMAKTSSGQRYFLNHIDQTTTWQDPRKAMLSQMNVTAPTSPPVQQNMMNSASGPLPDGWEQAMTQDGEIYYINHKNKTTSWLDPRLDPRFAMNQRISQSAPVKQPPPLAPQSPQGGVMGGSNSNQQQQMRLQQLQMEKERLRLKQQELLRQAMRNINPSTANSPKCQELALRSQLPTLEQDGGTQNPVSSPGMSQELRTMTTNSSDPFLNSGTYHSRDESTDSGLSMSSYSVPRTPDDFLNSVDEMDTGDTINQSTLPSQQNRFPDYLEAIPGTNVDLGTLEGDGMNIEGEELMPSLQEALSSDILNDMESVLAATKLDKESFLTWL
pIC50: −log10 of the molar value.
Entries and their measured pIC50 follow.

Recorded results for 5 compounds are shown here.
COC(=O)[C@H](Cc1ccc(OCc2ccccc2)cc1)NC(=O)CC1CCN(C(=O)CCc2ccc(C#N)cc2)CC1 [SR2-033] | > 5.00
O=C(CC1CCN(C(=O)CCc2ccccc2)CC1)N[C@@H](Cc1ccc(OCc2ccccc2)cc1)C(=O)O [SR2-022] | > 5.00
COC(=O)[C@H](Cc1ccc(OCc2ccccc2)cc1)NC(=O)CN1CCN(C(=O)OC(C)(C)C)CC1 [SR1-090] | < 5.00
COC(=O)[C@H](Cc1ccc(OCc2ccccc2)cc1)NC(=O)CC1CCN(C(=O)CC(c2ccccc2)c2ccccc2)CC1 [SR2-029] | > 5.00
COC(=O)[C@H](Cc1ccc(OCc2ccccc2)cc1)NC(=O)CC1CCN(C(=O)CCc2cccc(Cl)c2)CC1 [SR2-032] | > 5.00

Task: // lookup pIC50 | system=YAP1:OCT4 (Homo sapiens) | key= N#Cc1ccc(CCC(=O)N2CCC(CC(=O)N[C@@H](Cc3ccc(OCc4ccccc4)cc3)C(=O)O)CC2)cc1 [SR2-114]
Output: > 5.00

----------
Target: YAP1:OCT4 (Homo sapiens)
Assay: In vitro YAP1:OCT4 ELISA binding assay
Details: YAP1:OCT4 disruption
pIC50: −log10 of the molar value.
testReadout: pIC50

Task: // lookup pIC50 | system=YAP1:OCT4 (Homo sapiens) | key= CCOc1ccc(CCC(=O)N2CCC(CC(=O)N[C@@H](Cc3ccc(OCc4ccccc4)cc3)C(=O)OC)CC2)cc1
Output: 5.00 to 6.00

----------
Entries and their measured IC50 follow.
Biological target: YAP1:OCT4 (Homo sapiens)
Assay: In vitro YAP1:OCT4 ELISA binding assay
Details: YAP1:OCT4 disruption

COC(=O)[C@H](Cc1ccc(OCc2ccccc2)cc1)NC(=O)CC1CCN(C(=O)CCc2cccc(F)c2)CC1 | < 10 µM

Task: I am curious: what IC50 value has been reported for COC(=O)[C@H](Cc1ccc(OCc2ccccc2)cc1)NC(=O)CC1CCN(C(=O)CCc2ccccc2)CC1 ?
Output: 1 to 10 µM

Task: I am curious: what IC50 value has been reported for CC(C)NC(=O)[C@H](Cc1ccc(OCc2ccccc2)cc1)NC(=O)CC1CCN(C(=O)OC(C)(C)C)CC1 ?
Output: 1 to 10 µM

Task: I am curious: what IC50 value has been reported for COC(=O)[C@H](Cc1ccc(OCc2ccccc2)cc1)NC(=O)CC1CCN(C(=O)CCc2ccc(Cl)cc2)CC1 ?
Output: < 10 µM

Task: I am curious: what IC50 value has been reported for COC(=O)[C@H](Cc1ccc(OCc2ccccc2)cc1)NC(=O)CC1CCN(C(=O)CCc2ccc(F)cc2)CC1 ?
Output: 1 to 10 µM

Task: I am curious: what IC50 value has been reported for COC(=O)[C@H](Cc1ccc(OCc2ccccc2)cc1)NC(=O)CC1CCN(C(=O)CCc2cccc(Br)c2)CC1 ?
Output: < 10 µM

Task: I am curious: what IC50 value has been reported for COC(=O)[C@H](Cc1ccc(OCc2ccccc2)cc1)NC(=O)CC1CCN(C(=O)Cc2ccccc2)CC1 ?
Output: 1 to 10 µM

Task: I am curious: what IC50 value has been reported for O=C(CC1CCN(C(=O)CCc2ccc(Cl)c(Cl)c2)CC1)N[C@@H](Cc1ccc(OCc2ccccc2)cc1)C(=O)O ?
Output: < 10 µM
